Biological target: Histone-arginine methyltransferase CARM1 (Homo sapiens)
Sequence (Q86X55 whole entry): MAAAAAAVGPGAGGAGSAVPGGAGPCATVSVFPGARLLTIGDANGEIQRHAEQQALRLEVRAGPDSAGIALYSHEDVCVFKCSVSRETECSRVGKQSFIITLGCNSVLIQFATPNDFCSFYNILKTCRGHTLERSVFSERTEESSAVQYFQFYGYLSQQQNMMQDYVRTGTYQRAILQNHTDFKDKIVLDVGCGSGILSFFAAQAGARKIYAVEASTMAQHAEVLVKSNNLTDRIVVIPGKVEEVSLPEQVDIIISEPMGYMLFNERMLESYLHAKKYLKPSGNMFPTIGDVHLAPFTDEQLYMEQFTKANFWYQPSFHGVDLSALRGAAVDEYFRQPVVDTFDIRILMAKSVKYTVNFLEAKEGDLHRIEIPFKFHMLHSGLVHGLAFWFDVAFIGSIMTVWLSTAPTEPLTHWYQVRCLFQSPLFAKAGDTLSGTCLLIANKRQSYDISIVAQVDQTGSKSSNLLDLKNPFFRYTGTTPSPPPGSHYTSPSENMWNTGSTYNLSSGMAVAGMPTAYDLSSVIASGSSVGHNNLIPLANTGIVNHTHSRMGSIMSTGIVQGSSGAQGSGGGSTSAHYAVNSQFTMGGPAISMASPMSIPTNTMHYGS
Experiment: Inhibition of PRMT4 (unknown origin) using biotinylated […] (1 to 24 residues) as substrate in presence of [3H]SAM by scintillation proximity assay
pIC50: −log10 of the molar value.
QUANTITY_NAME: pIC50

                                   mol                              assay_system        result
0  CC(C)Oc1ccc(-c2c[nH]cc2CN(C)CCN)cc1  Histone-arginine methyltransferase CARM1 (Homo sapiens)  6.92 to 8.40

###

target: Histone-arginine methyltransferase CARM1 (Homo sapiens); test: Inhibition of PRMT4 (unknown origin) using histone H3 (21 to 44 residues) as substrate measured after 60 mins in presence of SAM by AlphaLisa assay
pIC50: −log10 of the molar value.
QUANTITY_NAME: pIC50

                                    molecule  modifier  quantitative_result
 0  CNCC(O)CN1CCc2c(cccc2NCc2ccccc2)C1 (centres undefined)         =                 6.46
 1  CNCC(O)CN1CCc2c(cccc2Oc2ccccc2F)C1 (centres undefined)         =                 5.68
 2  CNCC(O)CN1CCc2ccccc2C1 (centres undefined)         =                 5.27
 3  CNCC(O)CN1CCc2c(cccc2Oc2cccc(-c3nccs3)c2)C1 (centres undefined)         =                 6.18
 4  CNCC(O)CN1CCc2c(cccc2Oc2cccc(F)c2)C1 (centres undefined)         =                 5.64
 5  CNC[C@@H](O)CN1CCc2c(cccc2OCc2ccc(-c3nccs3)cc2)C1         =                 7.68
 6  CNCC(O)CN1CCc2c(cccc2OCc2ccc(-c3ccccc3)cc2)C1 (centres undefined)         =                 6.92
 7  CNCC(O)CN1CCc2ccccc2CC1 (centres undefined)         =                 5.08
 8  CNCC(O)CN1CCc2c(cccc2NC(=O)c2ccccc2)C1 (centres undefined)         =                 5.21
 9  CNCC(O)CN1CCc2cc(Oc3ccccc3)ccc2C1 (centres undefined)         =                 6.05
10  CNCC(O)CN1CCCc2c(Br)cccc2C1 (centres undefined)         =                 6.11
11  CNCC(O)CN1CCc2c(cccc2C(=O)Nc2ccccc2)C1 (centres undefined)         =                 5.10
12                  CNCCN1CCC(OCc2ccccc2)CC1         =                 7.49
13  CNC[C@H](O)CN1CCc2c(cccc2OCc2ccc(-c3nccs3)cc2)C1         =                 7.00
14  CNCC(O)CN1CCc2cc(OCc3ccccc3)ccc2C1 (centres undefined)         =                 6.32
15  CNCC(O)CN1CCc2c(cccc2Nc2ccccc2)C1 (centres undefined)         =                 5.68
16  CNCC(O)CN1CCc2c(cccc2NC(=O)Nc2ccccc2)C1 (centres undefined)         =                 5.42
17  CNCC(O)CN1CCc2c(cccc2Oc2ccc(C#N)cc2)C1 (centres undefined)         =                 5.64
18  CNCC(O)CN1CCc2c(cccc2C(=O)NCc2ccccc2)C1 (centres undefined)         =                 5.67
19  CNCC(O)CN1CCc2c(cccc2Oc2ccc(Cl)cc2)C1 (centres undefined)         =                 5.93
20  CNCC(O)CN1CCc2c(cccc2OCc2ccc(Cl)cc2)C1 (centres undefined)         =                 7.43
21  CNCC(O)CN1CCOc2ccccc2C1 (centres undefined)         <                 5.00
22  CNCC(O)CN1CCc2c(cccc2Oc2cccc(N)c2)C1 (centres undefined)         =                 5.46
23  CNCC(O)CN1CCc2ccc(Br)cc2C1 (centres undefined)         =                 5.28
24  CNCC(O)CN1CCc2c(cccc2NS(=O)(=O)c2ccccc2)C1 (centres undefined)         =                 5.37
25  CNCC(O)CN1CCc2cc(Br)ccc2C1 (centres undefined)         =                 5.35
26  CNCC(O)CN1CCc2c(cccc2OCc2ccc(-c3nccs3)cc2)C1 (racemic)         =                 7.51
27  CNCC(O)CN1CCc2c(Br)cccc2C1 (centres undefined)         =                 6.89
28  CNCC(O)CN1CCc2c(cccc2OCc2ccccc2F)C1 (centres undefined)         =                 6.60
29  CNCC(O)CN1CCc2cccc(Br)c2C1 (centres undefined)         =                 6.11
30  CNCC(O)CN1CCc2c(cccc2Oc2ccccc2)C1 (centres undefined)         =                 6.57
31  CNCC(O)CN1Cc2ccccc2C1 (centres undefined)         =                 5.61
32  CNCC(O)CN1CCc2c(cccc2OCc2ccc(C(C)(C)C)cc2)C1 (centres undefined)         =                 5.71
33  CNCC(O)CN1CCc2c(cccc2Oc2cc(C)cc(C)c2)C1 (centres undefined)         =                 5.70
34  CNCC(O)CN1CCc2c(cccc2OCc2ccc(C#N)cc2)C1 (centres undefined)         =                 6.52
35  CNCC(O)CN1CCc2c(cccc2-c2ccccc2)C1 (centres undefined)         =                 6.33
36  CNCC(O)CN1CCCc2ccccc2C1 (centres undefined)         =                 5.50
37  CNCC(O)CN1CCc2c(cccc2Oc2ccc(F)c(Cl)c2)C1 (centres undefined)         =                 5.69
38  CNCC(O)CN1CCc2c(cccc2Oc2ccc(F)cc2)C1 (centres undefined)         =                 5.58
39  CNCC(O)CN1CCc2c(cccc2OCc2cccc(-c3nccs3)c2)C1 (racemic)         =                 7.37
40  CNCC(O)CN1CCc2c(cccc2Oc2ccc(-c3nccs3)cc2)C1 (centres undefined)         =                 6.55
41  CNCC(O)CN1CCc2c(cccc2OCc2ccc(F)cc2)C1 (centres undefined)         =                 6.64
42  CNCC(O)CN1CCc2c(cccc2OCc2cccc(F)c2)C1 (centres undefined)         =                 6.28
43  CNCC(O)CN1CCc2c(cccc2OCc2ccccc2)C1 (centres undefined)         =                 6.78
